Biological target: interaction between VCAM-1 and VLA-4 (Homo sapiens, UniProt P05556+P13612)
Construct: supplied in their natural form as surface molecules on human U937 cells; The partner hVCAM-1(1-3)-IgG was made in house in transfected COS cells (ATCC CRL1651) and used as culture supernatant
Sequence (P13612 34-1032): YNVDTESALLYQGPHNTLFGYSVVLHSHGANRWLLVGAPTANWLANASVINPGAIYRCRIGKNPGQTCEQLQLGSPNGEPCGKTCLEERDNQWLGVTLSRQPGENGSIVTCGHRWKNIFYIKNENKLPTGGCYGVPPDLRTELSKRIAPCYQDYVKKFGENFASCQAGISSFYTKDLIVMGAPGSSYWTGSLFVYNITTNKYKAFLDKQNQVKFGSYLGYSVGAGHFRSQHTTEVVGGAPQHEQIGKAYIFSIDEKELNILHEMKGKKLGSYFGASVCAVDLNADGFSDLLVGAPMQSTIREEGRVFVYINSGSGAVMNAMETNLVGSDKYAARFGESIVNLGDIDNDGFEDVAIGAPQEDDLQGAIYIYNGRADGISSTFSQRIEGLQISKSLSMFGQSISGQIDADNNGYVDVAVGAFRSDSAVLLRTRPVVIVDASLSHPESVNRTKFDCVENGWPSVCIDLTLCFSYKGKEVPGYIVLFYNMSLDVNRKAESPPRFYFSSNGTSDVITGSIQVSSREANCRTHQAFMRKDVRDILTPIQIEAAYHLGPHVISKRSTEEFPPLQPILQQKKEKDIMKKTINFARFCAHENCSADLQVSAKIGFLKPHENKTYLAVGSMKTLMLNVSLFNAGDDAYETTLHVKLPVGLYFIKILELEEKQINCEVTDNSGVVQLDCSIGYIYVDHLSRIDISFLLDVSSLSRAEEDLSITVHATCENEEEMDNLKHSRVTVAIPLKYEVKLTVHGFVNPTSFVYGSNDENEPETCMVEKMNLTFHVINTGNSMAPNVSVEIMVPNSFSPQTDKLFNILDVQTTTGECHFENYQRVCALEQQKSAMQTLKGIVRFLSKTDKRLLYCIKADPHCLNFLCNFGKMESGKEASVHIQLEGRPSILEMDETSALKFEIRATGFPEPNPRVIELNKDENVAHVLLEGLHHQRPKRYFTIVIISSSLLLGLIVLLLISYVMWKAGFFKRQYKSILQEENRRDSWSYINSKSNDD
Sequence (P05556 21-798): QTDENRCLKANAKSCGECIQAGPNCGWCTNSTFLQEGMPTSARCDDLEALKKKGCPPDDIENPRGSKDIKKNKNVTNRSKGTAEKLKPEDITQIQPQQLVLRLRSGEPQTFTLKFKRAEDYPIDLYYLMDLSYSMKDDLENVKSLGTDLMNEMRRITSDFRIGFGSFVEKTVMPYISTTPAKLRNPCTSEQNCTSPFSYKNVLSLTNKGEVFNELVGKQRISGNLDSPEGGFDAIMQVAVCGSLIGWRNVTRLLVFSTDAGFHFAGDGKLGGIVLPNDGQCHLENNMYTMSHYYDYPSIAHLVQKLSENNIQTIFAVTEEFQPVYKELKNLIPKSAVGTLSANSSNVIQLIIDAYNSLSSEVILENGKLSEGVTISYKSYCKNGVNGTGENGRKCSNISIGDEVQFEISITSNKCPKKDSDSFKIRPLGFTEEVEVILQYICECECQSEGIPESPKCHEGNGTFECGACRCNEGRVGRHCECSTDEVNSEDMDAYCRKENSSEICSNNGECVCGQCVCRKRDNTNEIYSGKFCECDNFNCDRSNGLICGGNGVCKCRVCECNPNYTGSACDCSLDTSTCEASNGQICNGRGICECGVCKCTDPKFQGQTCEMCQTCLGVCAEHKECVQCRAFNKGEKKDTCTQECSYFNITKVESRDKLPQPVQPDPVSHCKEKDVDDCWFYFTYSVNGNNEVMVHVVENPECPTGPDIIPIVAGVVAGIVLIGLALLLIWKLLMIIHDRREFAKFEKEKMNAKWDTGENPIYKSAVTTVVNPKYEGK
Assay: U937/VCAM-1 cell adhesion test (adhesion of U937 cells to hVCAM-1(1-3)-IgG)
Conditions: concentration leading to 50% inhibition of adhesion of human U937 cells (ATCC CRL 1593) to hVCAM-1(1-3)-IgG
pIC50: −log10 of the molar value.
So basically: pIC50 at 8 or higher? That is yes (1). Lower than 8? That is no (0).

molecule	label
CC(C)C[C@@H](C(=O)N[C@H](C)CC(=O)O)N1C(=O)N(Cc2ccc(NC(=O)Nc3ccccc3)cc2)C(C)(C)C1=O [Example 6]	no (0)
C[C@H](CC(=O)O)NC(=O)CN1C(=O)CN(Cc2ccc(NC(=O)Nc3ccccc3Cl)cc2)C1=O [Example 30]	no (0)
CC(C)C[C@@H](C(=O)N[C@@H](CC(=O)O)c1ccc2c(c1)OCO2)N1C(=O)N(Cc2ccc(NC(=O)Nc3ccccc3)cc2)C(C)(C)C1=O [Example 5]	yes (1)
Cc1ccccc1NC(=O)Nc1ccc(CN2C(=O)N([C@@H](CC(C)C)C(=O)N[C@@H](CC(=O)O)C(=O)N[C@H](C(=O)O)c3ccccc3)C(=O)C2(C)C)cc1 [Example 47]	yes (1)
Cc1ccccc1NC(=O)Nc1ccc(CN2C(=O)N(CC(=O)N(C)[C@@H](CC(=O)O)C(=O)NC3C4CC5CC(C4)CC3C5)C(=O)C2(C)C)cc1 (stereo partly drawn) [Example 22]	yes (1)
Cc1ccccc1NC(=O)Nc1ccc(CN2C(=O)N([C@@H](CC(C)C)C(=O)N[C@@H](CC(=O)O)c3cccc4ccccc34)C(=O)C2(C)C)cc1 [Example 186]	yes (1)
